These data points were gathered from patent US20250051338A1.

- systemTested: TYK2 (Homo sapiens)
- assayText: TYK2 degradation MSD assay in EBV-B cells
- Assay type: cell-based
- Parameters: endogenous in cells; host or cells: EBV-B cells
- settings: 4 to 24 hours incubation, read-out: TYK2 MSD DC50 rating in EBV-B
parameterMeasured: DC50

Look over these answered cases.
CNc1cc(-c2cnn(C3CCC(CN4CC5(CCN(c6cccc7c6n(C)c(=O)n7C6CCC(=O)NC6=O)CC5)C4)CC3)c2)nn2c(C(=O)NC3C[C@@H]3F)cnc12 (stereo partly drawn) :: > 100 nM
CNc1cc(Nc2cccc(CN3CCC34CN(c3ncc(C#Cc5ccc6c(c5)n(C)c(=O)n6C5CCC(=O)NC5=O)cn3)C4)c2)nn2c(C(=O)NC3CC3)cnc12 (stereo not drawn) :: > 100 nM

# context switch: different compound, same DC50
Reported DC50, compound CNc1cc(Nc2cccn(-c3ccc(C(=O)N4CCC(N5CC(N6CCN(c7ccc8c(c7)n(C)c(=O)n8C7CCC(=O)NC7=O)CC6)C5)CC4)cn3)c2=O)nn2c(C(=O)N[C@@H]3C[C@@H]3F)cnc12 (stereo partly drawn) : ____
< 1 nM

----------
- systemTested: UniProtKB P29597
- assayText: TYK2 degradation MSD assay in EBV-B cells
- Format: cell-based
- Set-up: endogenous in cells; host or cells: EBV-B cells
- settings: 4 to 24 hours incubation, read-out: TYK2 MSD DC50 rating in EBV-B
Quick list: DC50 per entry.

CNc1cc(Nc2cccn(-c3ccc(CN4CCN(c5ccc(-c6ccc7c(c6)n(C)c(=O)n7C6CCC(=O)NC6=O)cn5)C(=O)C4)cn3)c2=O)nn2c(C(=O)N[C@@H]3C[C@@H]3F)cnc12 (stereo partly drawn) [Example K457] :: > 0.1 µM

# query: DC50 of entry CNC(=O)c1cnc(NC(=O)NCCCCCCCCCc2cccc3c2n(C)c(=O)n3C2CCC(=O)NC2=O)cc1Nc1cccc(-c2ncc(F)cn2)c1OC (stereo not drawn) [Example K183]
> 0.1 µM

Return reported DC50; argument: CNc1cc(Nc2cccn(-c3cccc(C(=O)NCCCCCCCCc4ccc5c(c4)n(C)c(=O)n5C4CCC(=O)NC4=O)c3)c2=O)nn2c(C(=O)N[C@@H]3C[C@@H]3F)cnc12 (stereo partly drawn) [Example K223]
> 0.1 µM

So what's the measured DC50 for this one? CNC(=O)c1cnc(Nc2ccc(CN3CCC(OCC#Cc4cccc5c4n(C)c(=O)n5C4CCC(=O)NC4=O)CC3)cn2)cc1Nc1cccc(-c2ncc(F)cn2)c1OC (stereo not drawn) [Example K151]
< 0.001 µM

Endpoint output: DC50 of CNc1cc(N2CCc3c(CN4CCN(c5ccc(-c6ccc7c(c6)n(C)c(=O)n7C6CCC(=O)NC6=O)cc5)CC4)cccc32)nn2c(C(=O)N[C@@H]3C[C@@H]3F)cnc12 (mixture of isomers) [Example K575] . Value?
> 0.1 µM

Item CNc1cc(Nc2cccc(-c3ccc(CN4CCC(c5ccc(-c6ccc7c(c6)n(C)c(=O)n7C6CCC(=O)NC6=O)cc5)CC4)cn3)c2)nn2c(C(=O)NC3CC3F)cnc12 (stereo not drawn) [Example K413] has what recorded DC50?
> 0.1 µM

----------
We begin with a simple list: items and their reported DC50.
- systemTested: TYK2 (Homo sapiens, UniProt P29597)
- Sequence (P29597 whole entry): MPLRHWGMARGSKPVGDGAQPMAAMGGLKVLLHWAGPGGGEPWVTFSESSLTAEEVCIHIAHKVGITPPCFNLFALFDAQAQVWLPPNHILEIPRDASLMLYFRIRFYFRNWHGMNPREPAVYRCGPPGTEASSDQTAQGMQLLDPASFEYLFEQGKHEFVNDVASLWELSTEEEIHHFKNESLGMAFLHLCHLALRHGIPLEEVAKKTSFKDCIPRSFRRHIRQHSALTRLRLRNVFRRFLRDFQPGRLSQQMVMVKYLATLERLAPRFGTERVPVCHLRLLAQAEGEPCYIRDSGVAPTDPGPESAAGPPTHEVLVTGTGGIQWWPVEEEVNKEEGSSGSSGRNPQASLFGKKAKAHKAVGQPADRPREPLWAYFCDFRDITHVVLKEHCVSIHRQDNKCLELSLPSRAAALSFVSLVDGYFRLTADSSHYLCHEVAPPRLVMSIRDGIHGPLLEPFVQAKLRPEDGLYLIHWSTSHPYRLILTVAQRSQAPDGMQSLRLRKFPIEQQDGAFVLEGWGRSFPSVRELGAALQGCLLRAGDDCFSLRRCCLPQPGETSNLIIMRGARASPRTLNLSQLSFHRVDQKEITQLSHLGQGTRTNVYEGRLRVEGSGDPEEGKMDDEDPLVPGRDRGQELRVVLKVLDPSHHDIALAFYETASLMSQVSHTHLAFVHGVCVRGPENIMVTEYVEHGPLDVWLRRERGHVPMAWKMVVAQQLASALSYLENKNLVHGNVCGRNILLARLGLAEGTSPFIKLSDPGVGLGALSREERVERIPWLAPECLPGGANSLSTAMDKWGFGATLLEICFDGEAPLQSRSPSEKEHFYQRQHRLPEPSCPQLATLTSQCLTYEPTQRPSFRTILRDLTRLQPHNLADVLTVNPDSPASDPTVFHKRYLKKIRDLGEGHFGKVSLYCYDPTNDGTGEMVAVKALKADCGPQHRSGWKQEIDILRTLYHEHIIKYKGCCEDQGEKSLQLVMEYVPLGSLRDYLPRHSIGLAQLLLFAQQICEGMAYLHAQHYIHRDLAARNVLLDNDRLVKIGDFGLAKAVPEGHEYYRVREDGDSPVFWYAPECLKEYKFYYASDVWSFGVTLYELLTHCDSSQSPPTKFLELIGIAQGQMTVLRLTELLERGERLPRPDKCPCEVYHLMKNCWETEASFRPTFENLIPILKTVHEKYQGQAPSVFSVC
- assayText: TYK2 degradation MSD assay in OCI-LY10 cells
- Type: cell-based
- Set-up: endogenous in cells; host or cells: EBV-B cells
- settings: 4 to 24 hours incubation, read-out: TYK2 MSD DC50 rating in OCI-LY10
- Procedure: Example 3. TYK2 Degradation MSD Assay in EBV-B, OCI-LY10, and Human PBMC Cells Degradation of TYK2 in cells was quantitatively measured using Meso Scale Discovery (MSD) technology. […] The assay plates were then incubated at room temperature for 1 hour, washed 3 times with 150 μl/well TBST buffer, and 150 μl/well MSD reading buffer (MSD, R92TC-2) were added. The plates were then analyzed by an MSD reader. […]

Below are worked cases with known answers.
CNc1cc(N2CCc3c(-c4ccc(C(=O)N5CCC(CN6CCN(c7ccc(-c8ccc9c(c8)n(C)c(=O)n9C8CCC(=O)NC8=O)cc7)CC6)CC5)cn4)cccc32)nn2c(C(=O)N[C@@H]3C[C@@H]3F)cnc12 (stereo partly drawn) :: < 1 nM
CNc1cc(-c2cccc(C(=O)NCCCCc3cccc4c3n(C)c(=O)n4C3CCC(=O)NC3=O)c2)nn2c(C(=O)N[C@@H]3C[C@@H]3F)cnc12 (stereo partly drawn) :: > 100 nM
CNC(=O)c1cnc(Nc2ccc(C(=O)NCCCCc3ccc4c(c3)n(C)c(=O)n4C3CCC(=O)NC3=O)cn2)cc1Nc1cccc(-c2ncc(F)cn2)c1OC (stereo not drawn) :: > 100 nM
CNC(=O)c1cnc(Nc2cc(C(=O)NCCCCCCc3ccc4c(c3)n(C)c(=O)n4C3CCC(=O)NC3=O)ccn2)cc1Nc1cccc(-c2ncc(F)cn2)c1OC (stereo not drawn) :: > 100 nM

Look up DC50: CNc1cc(Nc2cccn(-c3ccc(C(=O)N(C)CC4CCN(Cc5cccc6c5n(C)c(=O)n6C5CCC(=O)NC5=O)CC4)cn3)c2=O)nn2c(C(=O)N[C@@H]3C[C@@H]3F)cnc12 (stereo partly drawn)
> 100 nM

Fill in the blank: the reported DC50 of CNc1cc(N2CCc3c(N4CCN(C5CCN(c6ccc7c(c6)n(C)c(=O)n7C6CCC(=O)NC6=O)CC5)CC4)cccc32)nn2c(C(=O)N[C@@H]3C[C@@H]3F)cnc12 (stereo partly drawn) is ____.
< 1 nM

DC50 for Cn1c(=O)n(C2CCC(=O)NC2=O)c2ccc(-c3ccc(N4CCN(Cc5ccc(-c6cccc(Nc7cc(C8CC8)c8ncc(C(=O)N[C@@H]9C[C@@H]9F)n8n7)c6)nc5)CC4)cc3)cc21 (stereo partly drawn) ?
> 100 nM

Value lookup for DC50; key = CNc1cc(Nc2cccn(-c3cc(C(=O)NCCCCCCCCc4cccc5c4n(C)c(=O)n5C4CCC(=O)NC4=O)ccn3)c2=O)nn2c(C(=O)N[C@@H]3C[C@@H]3F)cnc12 (stereo partly drawn)
> 100 nM

# DC50 lookup, item CNc1cc(-c2ccc(C(=O)NCCCCc3cccc4c3n(C)c(=O)n4C3CCC(=O)NC3=O)cc2)nn2c(C(=O)N[C@@H]3C[C@@H]3F)cnc12 (stereo partly drawn)
> 100 nM

Suppose we examine the molecule CNc1cc(Nc2cccn(-c3ccc(C(=O)N4CCC(CC#Cc5cccc6c5n(C)c(=O)n6C5CCC(=O)NC5=O)CC4)cn3)c2=O)nn2c(C(=O)N[C@@H]3C[C@@H]3F)cnc12 (stereo partly drawn) ; what DC50 value has been reported?
> 100 nM

Requested field: DC50. Item: CNc1cc(Nc2cccn(-c3ccc(C(=O)N4CC5(CCN(c6ccc(-c7ccc8c(c7)n(C)c(=O)n8C7CCC(=O)NC7=O)cn6)CC5)C4)cn3)c2=O)nn2c(C(=O)N[C@@H]3C[C@@H]3F)cnc12 (stereo partly drawn)
> 100 nM

Return reported DC50; argument: CNc1cc(Nc2cccc(CN3CCC(OC4CC(c5cccc6c5n(C)c(=O)n6C5CCC(=O)NC5=O)C4)CC3)c2)nn2c(C(=O)NC3CC3)cnc12 (stereo not drawn)
< 1 nM

----------
- systemTested: TYK2 (Homo sapiens, UniProt P29597)
- assayText: TYK2 degradation MSD assay in EBV-B cells
- Assay type: cell-based
- Design: endogenous in cells; host or cells: EBV-B cells
- settings: 4 to 24 hours incubation, read-out: TYK2 MSD DC50 rating in EBV-B
Listed next: entries and their corresponding DC50.

CNc1cc(N2CCN(c3ccc(CN4CCN(c5ccc(-c6ccc7c(c6)n(C)c(=O)n7C6CCC(=O)NC6=O)cc5)CC4)cc3)CC2)nn2c(C(=O)N[C@@H]3C[C@@H]3F)cnc12 (stereo partly drawn) :: > 100 nM
CNc1cc(Nc2ccccc2C(=O)NCCCCCCCCc2ccc3c(c2)n(C)c(=O)n3C2CCC(=O)NC2=O)nn2c(C(=O)N[C@@H]3C[C@@H]3F)cnc12 (stereo partly drawn) :: > 100 nM
CNc1cc(Nc2cccc(CN3CCC(N(C)CC4CCN(c5ccc(-c6ccc7c(c6)n(C)c(=O)n7C6CCC(=O)NC6=O)cc5)C4)CC3)c2)nn2c(C(=O)NC3CC3)cnc12 (stereo not drawn) :: > 100 nM
CNc1cc(N2CCc3c(-c4ccc(CN5CCN(c6ccc(-c7cccc8c(N9CCC(=O)NC9=O)cncc78)cc6)CC5)cn4)cccc32)nn2c(C(=O)N[C@@H]3C[C@@H]3F)cnc12 (racemic) :: > 100 nM
CNc1cc(Nc2cccn(-c3ccc(C(=O)NCCOCCOCCOCCOCCOCCOCCc4ccc5c(c4)n(C)c(=O)n5C4CCC(=O)NC4=O)cn3)c2=O)nn2c(C(=O)N[C@@H]3C[C@@H]3F)cnc12 (stereo partly drawn) :: > 100 nM
CNc1cc(Nc2cccc(-c3ccc(CN4CCN([C@H]5CC[C@@H](c6ccc7c(c6)n(C)c(=O)n7C6CCC(=O)NC6=O)CC5)CC4)cn3)c2OC)nn2c(C(=O)N[C@@H]3C[C@@H]3F)cnc12 (mixture of isomers) :: < 1 nM

Now look at this entry.
# input molecule: Cc1cc(C)cc(Nc2cc(NCCCCCCc3ccc4c(c3)n(C)c(=O)n4C3CCC(=O)NC3=O)c3ncc(C(=O)N[C@@H]4C[C@@H]4F)n3n2)c1 (stereo partly drawn) ; wanted: its DC50
> 100 nM
